Recorded values, source PubChem BioAssay AID1159580.

Listed below: normalized growth values for each entry.
# assay.procedure: chemical genetic growth profiling, strain panel (AID 1159580);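 note: tested at 20 µM; growth read once vehicle control cultures reached saturation at 30 °C; 1 = growth at the plate median or of vehicle wells; lower values mean less growth of the strain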
# measurement.setup: S. cerevisiae deletion strains, growth OD, locus YFR028C, strain CDC14, stronger effect = lower value
Out of some 5,500 compounds screened, about 2,000 (36%) were called active. Roughly 18% stayed inconclusive and do not appear here. The list shows a part of the results.

>  <molecule>
O=S(=O)(Nc1cccc2nsnc12)c1cc(Cl)sc1Cl

>  <normalized growth>
0.96

$$$$
>  <molecule>
S=C(Nc1ccc(Cl)cc1Cl)N(c1cccc(Cl)c1)c1nc2ccccc2s1

>  <normalized growth>
0.949

$$$$
>  <molecule>
CCOC(=O)CSC(=S)NCc1ccc(C)cc1

>  <normalized growth>
0.947

$$$$
>  <molecule>
N#Cc1ccc(S(=O)(=O)Nc2ccccc2Oc2ccc(Cl)cc2Cl)cc1

>  <normalized growth>
0.98

$$$$
>  <molecule>
Cc1nnsc1C(=O)Nc1cc(C(F)(F)F)cc(C(F)(F)F)c1

>  <normalized growth>
0.964

$$$$
>  <molecule>
Cc1ccc(Sc2c(Sc3ccc(C)cc3)c(=O)c2=O)cc1

>  <normalized growth>
0.958

$$$$
>  <molecule>
N#CC(C#N)=C(SCc1c(Cl)cccc1Cl)SCc1c(Cl)cccc1Cl

>  <normalized growth>
0.993

$$$$
>  <molecule>
Cc1cc(Cl)ccc1NNC(=O)c1snnc1C

>  <normalized growth>
0.958

$$$$
>  <molecule>
O=C(N/C=C/c1ccsc1)Nc1cc(C(F)(F)F)cc(C(F)(F)F)c1

>  <normalized growth>
0.97

$$$$
>  <molecule>
O=S(=O)(Nc1cccc(CCc2ccccn2)c1)c1cc(Cl)c(Cl)cc1Cl

>  <normalized growth>
0.973

$$$$
>  <molecule>
Cc1nnsc1C(=O)NNc1c(Cl)cccc1Cl

>  <normalized growth>
0.981

$$$$
>  <molecule>
Cc1cc(C(=O)NNc2ccc(F)cc2F)no1

>  <normalized growth>
0.961

$$$$
>  <molecule>
COc1ccc(/C=C2\CSc3ccc(F)cc3C2=O)cc1

>  <normalized growth>
0.93

$$$$
>  <molecule>
O=C(Oc1ccc(C(F)(F)F)cc1[N+](=O)[O-])c1cccc(Cl)c1

>  <normalized growth>
0.938

$$$$
>  <molecule>
OC1(C(F)(F)F)CC(C23CC4CC(CC(C4)C2)C3)=NN1 (stereo not given)

>  <normalized growth>
0.86

$$$$
>  <molecule>
O=C(NNc1ccccc1F)c1ccno1

>  <normalized growth>
0.982

$$$$
>  <molecule>
O=C(CSc1nnnn1-c1ccccc1)c1ccccc1

>  <normalized growth>
0.959

$$$$
>  <molecule>
Cc1nnsc1C(=O)NNc1ccc(F)cc1F

>  <normalized growth>
0.952

$$$$
>  <molecule>
Cc1nn(Cc2cccc(C(=O)Nc3ccc(Cl)cc3)c2)c(C)c1Br

>  <normalized growth>
0.981

$$$$
>  <molecule>
Cc1ccc(-c2csc(-c3cccnc3)n2)c(C)c1

>  <normalized growth>
0.947

$$$$

====

# assay.procedure: chemical genetic growth profiling, strain panel (AID 1159580);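 note: tested at 20 µM; growth read once vehicle control cultures reached saturation at 30 °C; 1 = growth at the plate median or of vehicle wells; lower values mean less growth of the strain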
# measurement.setup: S. cerevisiae deletion strains, growth OD, locus YHR079C, strain IRE1
Screen size: about 5,500 compounds; about 2,000 (36%) were called active. Inconclusive results (about 18%) are left out. Rule as the data show it: active = normalized growth mostly below about 0.91 (no sharp cut-off); inconclusive = no clear call, values can overlap the other calls; inactive = mostly above about 0.92. The list shows a part of the results.
Classes used: t = active, f = inactive

>  <compound>
O=S(=O)(Nc1cccc2nsnc12)c1cc(Cl)sc1Cl

>  <class.name>
f

$$$$
>  <compound>
CN(C)c1ccc(C(=C2C=CC(=[N+](C)C)C=C2)c2ccc(N(C)C)cc2)cc1

>  <class.name>
t

$$$$
>  <compound>
CC[C@H](/C=C/C(C)C1CCC2C3CCC4=CC(=O)CC[C@]4(C)C3CC[C@]12C)C(C)C (stereo not given in full)

>  <class.name>
f

$$$$
>  <compound>
O=C(NNc1ccccc1F)c1ccno1

>  <class.name>
f

$$$$
>  <compound>
Cc1cc(C(=O)NNc2ccc(F)cc2F)no1

>  <class.name>
f

$$$$
>  <compound>
CNCCc1ccccn1

>  <class.name>
f

$$$$
>  <compound>
COc1cc(/C=C/C(=O)/C=C(O)/C=C/c2ccc(O)c(OC)c2)ccc1O

>  <class.name>
t

$$$$
>  <compound>
COc1ccc2c3c1O[C@H]1C[C@@H](O)C=C[C@@]31CCN(C)C2

>  <class.name>
f

$$$$
>  <compound>
c1cncc(C2CCCCN2)c1 (stereo not given)

>  <class.name>
f

$$$$
>  <compound>
Cc1cc(NNC(=O)c2ccccc2Cl)nc2c1c(C)nn2C

>  <class.name>
f

$$$$
>  <compound>
C[C@]12CCC(=O)C=C1CCC1C2CC[C@@]2(C)C1CC[C@@H]2O (stereo not given in full)

>  <class.name>
f

$$$$
>  <compound>
Cc1nnsc1C(=O)NNc1ccc(F)cc1F

>  <class.name>
f

$$$$
>  <compound>
OCCN1C[C@@H](O)[C@@H](O)C(O)C1CO (stereo not given in full)

>  <class.name>
f

$$$$
>  <compound>
Cc1cc(O)c(C=O)c(O)c1C(=O)O

>  <class.name>
f

$$$$
>  <compound>
CC(N)C(=O)NC(Cc1ccccc1)C(=O)O (stereo not given)

>  <class.name>
f

$$$$
>  <compound>
Cc1cc(Cl)ccc1NNC(=O)c1snnc1C

>  <class.name>
f

$$$$
>  <compound>
CC(=O)OCC(=O)[C@@]1(O)[C@@H](C)CC2C3CCC4=CC(=O)C=C[C@]4(C)[C@@]3(F)[C@@H](O)C[C@@]21C (stereo not given in full)

>  <class.name>
f

$$$$
>  <compound>
Cc1[nH]c(C)c(Cl)c(=O)c1Cl

>  <class.name>
f

$$$$
>  <compound>
Cc1ncc(CSSCc2cnc(C)c(O)c2CO)c(CO)c1O

>  <class.name>
f

$$$$
>  <compound>
CCOC(=O)c1c(C)cc(O)c(C=O)c1O

>  <class.name>
t

$$$$
>  <compound>
O=C1C=CC(=C(c2ccc(O)cc2)c2ccc(O)cc2)C=C1

>  <class.name>
f

$$$$
>  <compound>
CCC(NC(C)C)C(O)c1ccc(O)c(O)c1 (stereo not given)

>  <class.name>
f

$$$$
>  <compound>
CC1/C(=N\O)C[C@@H]2C[C@H]1C2(C)C (stereo not given in full)

>  <class.name>
f

$$$$
>  <compound>
COC1=CC(=O)C[C@@H](C)[C@]12Oc1c(Cl)c(OC)cc(OC)c1C2=O

>  <class.name>
f

$$$$
>  <compound>
CC(=O)N[C@@H](CC(C)C)C(=O)O

>  <class.name>
f

$$$$
